# ASSAY EXPLANATION: Cytotoxicity, PrestoBlue cell viability assay in BV-2 cells
# Type: cell-based, mouse
# RUN CONDITIONS: mouse, BV-2 microglial cells, 1 µM (log C -6); 24 h; read-out: immunotoxicity in BV-2 cells, % of cell viability
Here the recorded viability at 24 h, 1 µM is given for each entry.
Only the number, expressed in %, is required.

These solved cases illustrate the format of a correct answer.
CC(C)C(=O)Nc1cc(-c2cc(NC(N)=O)c(C(N)=O)s2)ccn1
97
NC(=O)Nc1cc(-c2ccnc(NC(=O)C3CCC3)c2)sc1C(N)=O
107

// next item, viability at 24 h, 1 µM requested
Task: For O=C1NC2(CCOC2)Nc2cc(-c3ccnc(NC(=O)C4CC4)c3)sc21 (stereo not drawn) , what is its reported viability at 24 h, 1 µM?
Output: 106
